These entries and their values trace back to patent US20210380703A1.

tested on: Mouse ACVR2A (mouse, UniProt P27038 20-135, limits assumed); note: test concentration or dose not given here
Sequence (P27038 20-135 limits assumed): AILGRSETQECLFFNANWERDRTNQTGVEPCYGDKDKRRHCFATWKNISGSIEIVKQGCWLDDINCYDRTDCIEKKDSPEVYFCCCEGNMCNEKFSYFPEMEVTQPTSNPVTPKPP
method description: ELISA
Protocol: The binding of ACVR2A-specific monoclonal antibodies to human ACVR2A, mouse ACVR2A, biotinylated goat anti-human kappa light chain (positive control) and human Fc (negative control) were determined by ELISA.
measured metric: optical density (OD)
Hi! Could you send only the number? It should be in OD, unit omitted.

Qu. Given the binder 368_H06 (antibody, V domains shown, VH/VL only) VH: EVQLLESGGGLVQPGGSLRLSCAASGFTFDSYGMHWVRQAPGKGLEWVANINYNGGYKSYADSVKGRFTISRDNSKNTLYLQMNSLRAEDTAVYYCARGATWHDTHLDYWGQGTLVTVSS VL: DIQMTQSPSSLSASVGDRVTITCRASQSILTYVNWYQQKPGKAPKLLIYATTSRASGVPSRFSGSGSGTDFTLTISSLQPEDFATYYCQQSYDNPLTFGGGTKVEIK , write its reported optical density.
Ans. 2.65

Qu. Given the binder 372_B09 (antibody, V domains shown, VH/VL only) VH: EVQLLESGGGLVQPGGSLRLSCAASGFTFSSYSMNWVRQAPGKGLEWVSSINYNSGYTSYADSVKGRFTISRDNSKNTLYLQMNSLRAEDTAVYYCARGATWHDTHLDYWGQGTLVTVSS VL: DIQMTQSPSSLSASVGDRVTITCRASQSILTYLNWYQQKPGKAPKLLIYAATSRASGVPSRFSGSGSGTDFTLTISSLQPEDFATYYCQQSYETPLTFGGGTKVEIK , write its reported optical density.
Ans. 3.01

Qu. Given the binder 366_H08 (antibody, V domains shown, VH/VL only) VH: EVQLLESGGGLVQPGGSLRLSCAASGFTFSDYGMNWVRQAPGKGLEWVASINYNSGYTSYADSVKGRFTISRDNSKNTLYLQMNSLRAEDTAVYYCARSANWHDTHLDYWGQGTLVTVSS VL: DIQMTQSPSSLSASVGDRVTITCRASQSILSYVNWYQQKPGKAPKLLIYAATSRHSGVPSRFSGSGSGTDFTLTISSLQPEDFATYYCQQSYNNPLTFGGGTKVEIK , write its reported optical density.
Ans. 2.77
